Target chain: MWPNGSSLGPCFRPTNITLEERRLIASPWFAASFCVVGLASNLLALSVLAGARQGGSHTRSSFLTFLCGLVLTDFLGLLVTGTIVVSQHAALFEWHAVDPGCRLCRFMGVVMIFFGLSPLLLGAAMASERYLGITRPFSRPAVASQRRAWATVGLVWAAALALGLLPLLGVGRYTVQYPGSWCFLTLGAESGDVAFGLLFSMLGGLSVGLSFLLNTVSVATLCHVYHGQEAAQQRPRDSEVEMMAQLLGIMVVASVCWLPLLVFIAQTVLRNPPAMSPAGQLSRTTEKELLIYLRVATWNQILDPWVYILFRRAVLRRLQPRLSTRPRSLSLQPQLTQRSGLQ
readoutLabel: IC50 (nM)
# unit: nM | format: bare number

Asked: Could you share which IC50 value was measured for `O=S(=O)(NCCc1cccc(CCc2nnn[nH]2)c1)c1ccc(Cl)cc1` ?
Given back: 64

* * *

The following compounds are shown together with reported pKd values.
Molecular target: Thromboxane A2 receptor (Homo sapiens, UniProt P21731)
Sequence (P21731 whole entry): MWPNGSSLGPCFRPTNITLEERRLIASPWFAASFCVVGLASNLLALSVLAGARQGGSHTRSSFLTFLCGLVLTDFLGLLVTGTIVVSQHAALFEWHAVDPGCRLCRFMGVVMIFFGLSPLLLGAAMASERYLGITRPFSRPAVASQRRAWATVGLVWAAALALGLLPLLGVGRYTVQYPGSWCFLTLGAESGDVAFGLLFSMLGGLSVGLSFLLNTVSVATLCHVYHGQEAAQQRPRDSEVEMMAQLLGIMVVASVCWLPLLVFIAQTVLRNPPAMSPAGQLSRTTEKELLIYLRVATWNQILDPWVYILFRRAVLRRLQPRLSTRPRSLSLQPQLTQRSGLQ
The scale used: pKd is minus the common logarithm of the concentration in molar units.

Solved cases below.
- compound: "O=C1C=C(O)C(Cc2cccc(CCNS(=O)(=O)c3ccc(Cl)cc3)c2)C1 (centres undefined)"
  readoutLabel: "pKd"
  quantitativeResult: 6.69
- compound: "O=C1CCC(O)=C1Cc1cccc(CCNS(=O)(=O)c2ccc(Cl)cc2)c1"
  readoutLabel: "pKd"
  quantitativeResult: 4.94
- compound: "O=S(=O)(NCCc1cccc(CCc2nnn[nH]2)c1)c1ccc(Cl)cc1"
  readoutLabel: "pKd"
  quantitativeResult: 6.48

Moving on to the next compound.
Asked: Could you share which pKd value was measured for CC1=C(O)C(Cc2cccc(CCNS(=O)(=O)c3ccc(Cl)cc3)c2)CC1=O (centres undefined) ?
Given back: 6.48

* * *

The following molecules are shown together with reported logP values.
test: Octanol-phosphate buffer partition coefficient, log P of the compound by pH metric method; assay type: physicochemical

- molecule: "O=C1C=C(O)CC1Cc1ccc(Br)cc1 (stereo not given)"
  result: 3.02

Asked: Could you share which logP value was measured for `O=C(O)CCc1ccc(Br)cc1` ?
Given back: 3

Asked: Could you share which logP value was measured for `Brc1ccc(Cc2nn[nH]n2)cc1` ?
Given back: 2.21

Asked: Could you share which logP value was measured for CC1=C(O)CC(Cc2ccc(Br)cc2)C1=O (stereo not given) ?
Given back: 3.28

Asked: Could you share which logP value was measured for `O=C1CCC(O)=C1Cc1ccc(Br)cc1` ?
Given back: 3.01

* * *

The following molecules are shown together with reported pKa values.
test: Dissociation constant, pKa of the compound by pH metric method; assay type: physicochemical
Reply: number alone, nothing else.

- molecule: "O=C1C=C(O)CC1Cc1ccc(Br)cc1 (configuration not stated)"
  pKa: 3.96

Asked: Could you share which pKa value was measured for `O=C(O)CCc1ccc(Br)cc1` ?
Given back: 4.33

Asked: Could you share which pKa value was measured for `O=C1CCC(O)=C1Cc1ccc(Br)cc1` ?
Given back: 4.2

Asked: Could you share which pKa value was measured for `Brc1ccc(Cc2nn[nH]n2)cc1` ?
Given back: 4.62

Asked: Could you share which pKa value was measured for `CC1=C(O)CCC1=O` ?
Given back: 4.47

Asked: Could you share which pKa value was measured for `O=C1C=C(O)CC1` ?
Given back: 4.2

Asked: Could you share which pKa value was measured for CC1=C(O)CC(Cc2ccc(Br)cc2)C1=O (configuration not stated) ?
Given back: 4.24

* * *

The following molecules are shown together with reported pKd values.
Target: UniProt:P30987
Sequence (P30987 whole entry): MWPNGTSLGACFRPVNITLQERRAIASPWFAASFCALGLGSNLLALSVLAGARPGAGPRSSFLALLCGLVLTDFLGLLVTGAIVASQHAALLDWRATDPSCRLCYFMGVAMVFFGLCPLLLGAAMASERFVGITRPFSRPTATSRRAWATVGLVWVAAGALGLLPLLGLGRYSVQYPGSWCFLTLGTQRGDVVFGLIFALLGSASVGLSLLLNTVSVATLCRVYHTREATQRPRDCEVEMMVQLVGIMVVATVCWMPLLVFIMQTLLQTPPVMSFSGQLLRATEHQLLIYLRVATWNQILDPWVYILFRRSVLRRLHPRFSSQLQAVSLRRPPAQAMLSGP
The scale used: pKd is minus the common logarithm of the concentration in molar units.

- molecule: "CC1=C(O)C(Cc2cccc(CCNS(=O)(=O)c3ccc(Cl)cc3)c2)CC1=O (configuration not stated)"
  pKd: 7.59

Moving on to the next molecule.
Asked: Could you share which pKd value was measured for `O=S(=O)(NCCc1cccc(CCc2nnn[nH]2)c1)c1ccc(Cl)cc1` ?
Given back: 7.72
